Provenance of the data: ChEMBL document CHEMBL5058577

Tested on: Fibroblast
ASSAY METHOD TEXT: Multiplex assay against human fibroblast
Format: toxicity, cell-based
TEST CONDITIONS: 12 h, 1 µM, compound concentration 1 uM, replicate 1
ATTRIBUTE MEASURED: Population Mitochondria Different-Phenotype (%)
One number for each entry, in %.

For each of the items listed, what is its Population Mitochondria Different-Phenotype (%)?
1. CN(C)c1ccnc2sc3c(=O)n(N4CCCCCC4)cnc3c12
2. Cc1nc2ccc(Oc3ccc(F)cc3)cc2c(=O)n1C[C@H]1CCCN(C(C)C)C1.Cl
3. CC(=O)NCCc1c(Cc2ccccc2)[nH]c2ccccc12 [LUZINDOLE]
4. O=C(O)Cc1ccccc1Nc1c(Cl)cccc1Cl [DICLOFENAC]
5. C[C@@H]1C[C@H]2[C@@H]3CCC4=CC(=O)C=C[C@]4(C)[C@@]3(F)[C@@H](O)C[C@]2(C)[C@@]1(O)C(=O)CO [DEXAMETHASONE]
6. CN1CCN(c2nc3cc(C(F)(F)F)ccc3n3cccc23)CC1.O=C(O)/C=C\C(=O)O.O=C(O)/C=C\C(=O)O
7. N#Cc1c(N)nc(SCc2csc(-c3ccc(Cl)cc3)n2)c(C#N)c1-c1ccc(OCCO)cc1 [CAPADENOSON]

Completion:
[3, 4, 7, 6, 2, 5, 10]

# batch size: 8; output Population Mitochondria Different-Phenotype (%) per entry
1. C[C@H]1[C@H]2CC[C@H]3[C@@H]4CC=C5C[C@@H](N(C)C)CC[C@]5(C)[C@H]4CC[C@]23CN1C [CONESSINE]
2. CCCN1CCC[C@@H]2Cc3n[nH]cc3C[C@H]21.Cl [QUINPIROLE HYDROCHLORIDE]
3. O=S(=O)(c1ccccc1)c1cnc2c(N3CCNCC3)cccc2c1 [INTEPIRDINE]
4. Cc1ccccc1C(=O)Nc1ccc(C(=O)N2CCCC(N(C)C)c3ccccc32)cc1.Cl (centres undefined)
5. CSc1ccccc1N1CCN(CCCCCC(=O)NC2CCCc3ccccc32)CC1.Cl (centres undefined)
6. Oc1c(CN2CCN(c3ccccn3)CC2)cc(Cl)c2cccnc12
7. O=C(NCCO)c1cccc(-c2cc(Nc3ccc(OC(F)(F)F)cc3)ncn2)c1
8. C[C@H](NC(=O)c1c(C(F)F)nn(C)c1Oc1cccc(C(F)(F)F)c1)c1ccc(C(=O)O)cc1 [PALUPIPRANT]

Completion:
[8, 3, 2, 5, 15, 0, 6, 4]

I have 8 compounds here; please give me Population Mitochondria Different-Phenotype (%) for each one.
1. CC1(COc2ccc3c(c2)ncn3-c2ccc3cccc(N4CCC(N)CC4)c3n2)COC1 [CRENOLANIB]
2. CCCC(CCC)C(=O)O [VALPROIC ACID]
3. CC(C)(C)c1ccc(S(=O)(=O)Nc2ccc(Cl)cc2C(=O)c2cc[n+]([O-])cc2)cc1 [VERCIRNON]
4. CNC[C@H](O)c1ccc(O)c(O)c1 [EPINEPHRINE]
5. O=C(NCC(=O)N1CC[C@H](N[C@H]2CC[C@@](O)(c3ccc(-c4ncccn4)cn3)CC2)C1)c1cccc(C(F)(F)F)c1 [PF-4136309]
6. c1cc(OCCCN2CCCCC2)ccc1CN1CCCCC1 [JNJ-5207852]
7. O=C(O)c1cc2ccccc2c(Cc2c(O)c(C(=O)O)cc3ccccc23)c1O [PAMOIC ACID]
8. Cc1ccc(/C(=C\CN2CCCC2)c2ccccn2)cc1 [TRIPROLIDINE]

Completion:
[4, 2, 3, 3, 4, 2, 2, 9]
